The values you see were collected from ChEMBL document CHEMBL3217479.

# procedure.summary: Apparent permeability from apical to basolateral side of human Caco2 cells
# Format: ADME, cell-based
# particulars: Caco-2
outcome.measure: Papp A→B (×10⁻⁶ cm/s)

P = COC[C@H](C)Oc1cc(Oc2ccc(S(C)(=O)=O)cc2)cc(C(=O)Nc2ccc(C(=O)O)cn2)c1
Q = COC[C@H](C)Oc1cc(Oc2ccc(S(C)(=O)=O)cc2)cc(C(=O)Nc2nc(C)ns2)c1
R = COC[C@H](C)Oc1cc(Oc2cc(F)cc(F)c2)cc(C(=O)Nc2ccc(C(=O)O)cn2)c1
S = COC[C@H](C)Oc1cc(Oc2ccc(S(C)(=O)=O)cc2)cc(C(=O)Nc2nccs2)c1
Sort by Papp A→B with smallest numbers at the start of the list. Form field (ranking): labels in requested order.
P, R, Q, S
(P: 0.3 ×10⁻⁶ cm/s, R: 7.4 ×10⁻⁶ cm/s, Q: 29 ×10⁻⁶ cm/s, S: 54 ×10⁻⁶ cm/s)
